procedure_details: Lipid nanoparticle size and polydispersity by dynamic light scattering
Assay type: physicochemical
test_parameters: LNP of lipid/DSPC/cholesterol/PEG-lipid 50:10:38.5:1.5 encapsulating hEPO mRNA
Here the recorded size (nm) is given for each entry.
Respond with the bare value in nm.

compound	size (nm)
CCCCCCCCCCCOC(=O)CCOCCN(CCN(CCO)CCOCCC(=O)OCC(CCCCCCCC)CCCCCCCC)C1CCCCC1 [Compound 117]	79.67
CCCCCCCCC(CCCCCCCC)COC(=O)CCCCCN(C/C=C/CN(CCCCCC(=O)OCC(CCCCCCCC)CCCCCCCC)C1CCC1)CCO [Compound 65]	104.2
CCCCCCCCC(CCCCCC)CNC(=O)CCCCCCN(CCO)CCN(CCCCC(COC(=O)CCCCCCC)COC(=O)CCCCCCC)C1CCCC1 (stereo not drawn) [Compound 230]	89.46
CCCCCCCCC(CCCCCCCC)COC(=O)CCCCCN(CCO)CCN(CCCCCC(=O)OCC(CCCCCCCC)CCCCCCCC)C1CCC(C)CC1 (stereo not drawn) [Compound 40]	52.06
CCCCCCCCCOC(=O)CCCCCCCN1CCC(N(CCO)CCCCCCCC(=O)OC(CCCCCCCC)CCCCCCCC)CC1 [Compound 177]	95.00

Query block: Which size (nm) reading was recorded for the compound CCCCCCCCCCCC(=O)OCCCCCN(CCN(CCO)CCCCCOC(=O)CC(CCCCCCCC)CCCCCCCC)C1CCCCCCC1 [Compound 95] ?
Result block: 55.48
